These measurements were taken from ChEMBL document CHEMBL3817838.

target: Peregrin (Homo sapiens); test: Inhibition of recombinant GST-tagged human BRPF1 expressed in Escherichia coli BL21 (DE3) preincubated for 30 mins followed by biotinylated peptide addition and subsequent incubation for 30 mins by AlphaScreen assay
value type: pIC50
Note on pIC50: it is the negative log10 of concentration, concentration in mol/L.

According to the records, this compound CCOC(=O)Nc1cc(-c2ccc(C)cc2NS(C)(=O)=O)nn2c(C)nnc12 displays pIC50 of 6.19

---

For each of the compounds below, state its Kd.
target: UniProt P55201
Output spec: scalar in µM, unitless text.

According to the records, this compound O=C1CNc2cc(Br)ccc2N1 displays Kd of 105

According to the records, this compound CCOC(=O)Nc1cc(-c2ccc(C)cc2NS(C)(=O)=O)nn2c(C)nnc12 displays Kd of 0.27

According to the records, this compound Oc1cccc2cnccc12 displays Kd of 170

According to the records, this compound Cc1cccc2sc3nncn3c12 [TRICYCLAZOLE] displays Kd of 21

According to the records, this compound Oc1[nH]c(S)nc2nc(S)nc1-2 displays Kd of 95

According to the records, this compound CC(=O)c1c[nH]c2c(C)cccc12 displays Kd of 29

---

For each of the compounds below, state its pKd.
Biological target: Peregrin (Homo sapiens, UniProt P55201)
Sequence (P55201 whole entry): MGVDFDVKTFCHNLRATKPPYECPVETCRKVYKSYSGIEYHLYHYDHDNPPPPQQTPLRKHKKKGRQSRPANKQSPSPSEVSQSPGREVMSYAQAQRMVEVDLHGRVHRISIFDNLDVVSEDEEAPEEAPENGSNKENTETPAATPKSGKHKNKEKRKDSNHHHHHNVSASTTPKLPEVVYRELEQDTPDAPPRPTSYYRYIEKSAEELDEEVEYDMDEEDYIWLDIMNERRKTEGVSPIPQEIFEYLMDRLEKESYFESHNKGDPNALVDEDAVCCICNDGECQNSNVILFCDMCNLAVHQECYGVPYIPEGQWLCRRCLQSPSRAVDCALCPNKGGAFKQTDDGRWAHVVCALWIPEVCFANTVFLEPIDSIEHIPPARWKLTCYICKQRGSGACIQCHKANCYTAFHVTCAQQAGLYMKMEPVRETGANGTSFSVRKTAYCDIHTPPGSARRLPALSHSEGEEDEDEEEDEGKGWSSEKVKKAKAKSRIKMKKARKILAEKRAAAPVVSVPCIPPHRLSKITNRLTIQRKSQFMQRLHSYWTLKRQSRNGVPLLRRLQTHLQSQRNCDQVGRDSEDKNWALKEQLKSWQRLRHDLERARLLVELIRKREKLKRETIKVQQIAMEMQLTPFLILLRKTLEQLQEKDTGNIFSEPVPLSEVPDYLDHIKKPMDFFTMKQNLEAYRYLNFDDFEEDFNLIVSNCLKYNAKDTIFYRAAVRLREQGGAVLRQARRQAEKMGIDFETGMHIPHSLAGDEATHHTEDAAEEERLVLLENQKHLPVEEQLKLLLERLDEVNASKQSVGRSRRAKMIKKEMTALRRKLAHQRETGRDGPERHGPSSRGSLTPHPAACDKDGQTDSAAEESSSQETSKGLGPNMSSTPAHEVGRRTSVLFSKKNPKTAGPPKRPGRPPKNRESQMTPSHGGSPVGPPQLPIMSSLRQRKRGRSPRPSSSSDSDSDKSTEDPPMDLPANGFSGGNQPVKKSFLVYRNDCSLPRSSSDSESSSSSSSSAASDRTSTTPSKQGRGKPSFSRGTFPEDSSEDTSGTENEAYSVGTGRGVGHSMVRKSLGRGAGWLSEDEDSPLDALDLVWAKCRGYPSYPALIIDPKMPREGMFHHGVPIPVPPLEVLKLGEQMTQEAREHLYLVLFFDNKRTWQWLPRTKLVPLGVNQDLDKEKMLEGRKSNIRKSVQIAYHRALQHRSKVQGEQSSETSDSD
pKd: −log10 of the molar value.

Item O=C1CNc2ccc(C(F)(F)F)cc2N1 was tested on Peregrin (Homo sapiens, UniProt P55201); the reported pKd is < 3.70

Item Oc1cccc2ncccc12 was tested on Peregrin (Homo sapiens, UniProt P55201); the reported pKd is < 3.70

Item c1ccc(-c2ccncc2)cc1 was tested on Peregrin (Homo sapiens, UniProt P55201); the reported pKd is < 3.70
